- MEASUREMENT NOTES: in vivo
- Design: species or system Sprague-Dawley strain rats
- MEASUREMENT PARAMETERS: Sprague-Dawley, rat, iv, 0.25 mg/kg
Where a name gives a salt, the structure may show the parent alone.
READOUT NAME: clearance (mL/min/kg)
Give the value in mL/min/kg but do not write mL/min/kg after it.

Query :: Request the reported clearance associated with Cn1cnc(Cc2cn(Cc3cc(F)c(F)cc3F)c(Nc3cc4cn(C)nc4cc3Cl)nc2=O)n1 [Compound 4 hydrochloride]
Result :: 4.1

###

- MEASUREMENT NOTES: Pharmacokinetic (PK) assay in mice
- Assay type: in vivo, C57BL6/J strain mice
- MEASUREMENT PARAMETERS: C57BL6/J, plasma, 5 mg/kg; Mouse, PO, 5 mpk
Where a name gives a salt, the structure may show the parent alone.
READOUT NAME: half-life (h)
Give the value in h but do not write h after it.

Query :: Request the reported half-life associated with Cn1cnc(Cc2cn(Cc3cc(F)c(F)cc3F)c(Nc3cc4cn(C)nc4cc3Cl)nc2=O)n1 [Compound 4 hydrochloride]
Result :: 2.7

###

- MEASUREMENT NOTES: in vivo
- Design: species or system beagle dogs
- MEASUREMENT PARAMETERS: beagle, dog, po, 0.5 mg/kg
Where a name gives a salt, the structure may show the parent alone.
READOUT NAME: Cmax (nM)
Give the value in nM but do not write nM after it.

Query :: Request the reported Cmax associated with Cn1cnc(Cc2cn(Cc3cc(F)c(F)cc3F)c(Nc3cc4cn(C)nc4cc3Cl)nc2=O)n1 [Compound 4 hydrochloride]
Result :: 270

###

- MEASUREMENT NOTES: in vivo
- Parameters: species or system beagle dogs
- MEASUREMENT PARAMETERS: beagle, dog, iv, 0.1 mg/kg
Counter-ions that a name gives are not always drawn.
READOUT NAME: clearance

Query :: Request the reported clearance associated with Cn1cnc(Cc2cn(Cc3cc(F)c(F)cc3F)c(Nc3cc4cn(C)nc4cc3Cl)nc2=O)n1 [Compound 4 hydrochloride]
Result :: 7.2 mL/min/kg

###

- MEASUREMENT NOTES: in vivo
- Parameters: species or system Sprague-Dawley strain rats
- MEASUREMENT PARAMETERS: Sprague-Dawley, rat, iv, 0.25 mg/kg
Counter-ions that a name gives are not always drawn.
READOUT NAME: Vd (L/kg)
Give the value in L/kg but do not write L/kg after it.

Query :: Request the reported Vd associated with Cn1cnc(Cc2cn(Cc3cc(F)c(F)cc3F)c(Nc3cc4cn(C)nc4cc3Cl)nc2=O)n1 [Compound 4 hydrochloride]
Result :: 0.62

###

- MEASUREMENT NOTES: in vivo
- Design: species or system Sprague-Dawley strain rats
- MEASUREMENT PARAMETERS: Sprague-Dawley, rat, po, 0.5 mg/kg, AUCfree
Where a name gives a salt, the structure may show the parent alone.
READOUT NAME: AUC (µM·h)
Give the value in µM·h but do not write µM·h after it.

Query :: Request the reported AUC associated with Cn1cnc(Cc2cn(Cc3cc(F)c(F)cc3F)c(Nc3cc4cn(C)nc4cc3Cl)nc2=O)n1 [Compound 4 hydrochloride]
Result :: 0.22

###

- MEASUREMENT NOTES: in vivo
- Set-up: species or system beagle dogs
- MEASUREMENT PARAMETERS: beagle, dog, iv, 0.1 mg/kg
- Protocol: Objective of assay: The druggability of compounds was evaluated by measuring their pharmacokinetic properties in different animal species. Assay Materials: C57BL6/J strain mice, Sprague-Dawley strain rats and beagle dogs. The pharmacokinetic characteristics of the compound after intravenous and oral administration were assayed in animals using a standard protocol. […]
Structures can show the parent of a compound that is named as a salt.
READOUT NAME: Vd

Query :: Request the reported Vd associated with Cn1cnc(Cc2cn(Cc3cc(F)c(F)cc3F)c(Nc3cc4cn(C)nc4cc3Cl)nc2=O)n1 [Compound 4 hydrochloride]
Result :: 2.5 L/kg

###

- MEASUREMENT NOTES: Pharmacokinetic (PK) assay in mice
- Format: in vivo, C57BL6/J strain mice
- MEASUREMENT PARAMETERS: C57BL6/J, mouse, plasma, iv, 1 mg/kg, IV, 1 mpk, read-out: AUCfree
- Protocol: Objective of assay: The druggability of compounds was evaluated by measuring their pharmacokinetic properties in different animal species. Assay Materials: C57BL6/J strain mice, Sprague-Dawley strain rats and beagle dogs. The pharmacokinetic characteristics of the compound after intravenous and oral administration were assayed in animals using a standard protocol. […]
Structures can show the parent of a compound that is named as a salt.
READOUT NAME: AUC (µM·h)
Give the value in µM·h but do not write µM·h after it.

Query :: Request the reported AUC associated with Cn1cnc(Cc2cn(Cc3cc(F)c(F)cc3F)c(Nc3cc4cn(C)nc4cc3Cl)nc2=O)n1 [Compound 4 hydrochloride]
Result :: 0.92

###

- MEASUREMENT NOTES: in vivo
- Parameters: species or system beagle dogs
- MEASUREMENT PARAMETERS: beagle, dog, iv, 0.1 mg/kg, AUCfree
Structures can show the parent of a compound that is named as a salt.
READOUT NAME: AUC
Could you write the number and then its unit?

Query :: Request the reported AUC associated with Cn1cnc(Cc2cn(Cc3cc(F)c(F)cc3F)c(Nc3cc4cn(C)nc4cc3Cl)nc2=O)n1 [Compound 4 hydrochloride]
Result :: 0.12 µM·h

###

- MEASUREMENT NOTES: Pharmacokinetic (PK) assay in mice
- Type: in vivo, C57BL6/J strain mice
- MEASUREMENT PARAMETERS: C57BL6/J, plasma, 1 mg/kg; Mouse, IV, 1 mpk
Structures can show the parent of a compound that is named as a salt.
READOUT NAME: clearance (mL/min/kg)
Give the value in mL/min/kg but do not write mL/min/kg after it.

Query :: Request the reported clearance associated with Cn1cnc(Cc2cn(Cc3cc(F)c(F)cc3F)c(Nc3cc4cn(C)nc4cc3Cl)nc2=O)n1 [Compound 4 hydrochloride]
Result :: 0.98

###

- MEASUREMENT NOTES: in vivo
- Parameters: species or system Sprague-Dawley strain rats
- MEASUREMENT PARAMETERS: Sprague-Dawley, rat, po, 0.5 mg/kg
- Description: Objective of assay: The druggability of compounds was evaluated by measuring their pharmacokinetic properties in different animal species. Assay Materials: C57BL6/J strain mice, Sprague-Dawley strain rats and beagle dogs. The pharmacokinetic characteristics of the compound after intravenous and oral administration were assayed in animals using a standard protocol. […]
Counter-ions that a name gives are not always drawn.
READOUT NAME: bioavailability (%)
Give the value in % but do not write % after it.

Query :: Request the reported bioavailability associated with Cn1cnc(Cc2cn(Cc3cc(F)c(F)cc3F)c(Nc3cc4cn(C)nc4cc3Cl)nc2=O)n1 [Compound 4 hydrochloride]
Result :: 103

###

- MEASUREMENT NOTES: in vivo
- Design: species or system Sprague-Dawley strain rats
- MEASUREMENT PARAMETERS: Sprague-Dawley, rat, po, 0.5 mg/kg
Counter-ions that a name gives are not always drawn.
READOUT NAME: half-life (h)
Give the value in h but do not write h after it.

Query :: Request the reported half-life associated with Cn1cnc(Cc2cn(Cc3cc(F)c(F)cc3F)c(Nc3cc4cn(C)nc4cc3Cl)nc2=O)n1 [Compound 4 hydrochloride]
Result :: 3.4

###

- MEASUREMENT NOTES: Pharmacokinetic (PK) assay in mice
- Format: in vivo, C57BL6/J strain mice
- MEASUREMENT PARAMETERS: C57BL6/J, plasma, 1 mg/kg; Mouse, IV, 1 mpk
Where a name gives a salt, the structure may show the parent alone.
READOUT NAME: Vd (L/kg)
Give the value in L/kg but do not write L/kg after it.

Query :: Request the reported Vd associated with Cn1cnc(Cc2cn(Cc3cc(F)c(F)cc3F)c(Nc3cc4cn(C)nc4cc3Cl)nc2=O)n1 [Compound 4 hydrochloride]
Result :: 0.23

###

- MEASUREMENT NOTES: in vivo
- Parameters: species or system beagle dogs
- MEASUREMENT PARAMETERS: beagle, dog, po, 0.5 mg/kg, AUC
Where a name gives a salt, the structure may show the parent alone.
READOUT NAME: AUC (µM·h)
Give the value in µM·h but do not write µM·h after it.

Query :: Request the reported AUC associated with Cn1cnc(Cc2cn(Cc3cc(F)c(F)cc3F)c(Nc3cc4cn(C)nc4cc3Cl)nc2=O)n1 [Compound 4 hydrochloride]
Result :: 3.1

###

- MEASUREMENT NOTES: Pharmacokinetic (PK) assay in mice
- Assay type: in vivo, C57BL6/J strain mice
- MEASUREMENT PARAMETERS: C57BL6/J, plasma, 5 mg/kg; Mouse, PO, 5 mpk
Where a name gives a salt, the structure may show the parent alone.
READOUT NAME: Tmax
Could you write the number and then its unit?

Query :: Request the reported Tmax associated with Cn1cnc(Cc2cn(Cc3cc(F)c(F)cc3F)c(Nc3cc4cn(C)nc4cc3Cl)nc2=O)n1 [Compound 4 hydrochloride]
Result :: 45 min
